target: Melatonin receptor type 1B (Homo sapiens, UniProt P49286); assay: Agonist activity at human MT2 receptor expressed in CHO cells by [35S]GTPgamma binding assay
Sequence (P49286 whole entry): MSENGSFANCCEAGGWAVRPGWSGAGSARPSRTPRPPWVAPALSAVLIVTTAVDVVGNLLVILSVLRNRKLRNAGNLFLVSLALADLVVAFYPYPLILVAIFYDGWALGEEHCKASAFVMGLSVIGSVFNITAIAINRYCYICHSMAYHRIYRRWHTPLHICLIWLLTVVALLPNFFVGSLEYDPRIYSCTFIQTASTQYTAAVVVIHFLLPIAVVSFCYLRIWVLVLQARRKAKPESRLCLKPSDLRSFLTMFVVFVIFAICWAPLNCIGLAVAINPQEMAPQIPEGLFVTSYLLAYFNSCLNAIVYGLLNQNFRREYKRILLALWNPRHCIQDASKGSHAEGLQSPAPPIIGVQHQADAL
Overview of recorded pEC50 for various compounds
// returns pEC50 (minus log10 of molar concentration), number only

Previously resolved entries follow.
COc1ccc2c(I)cn(CCNC(C)=O)c2n1
7.96
COc1ccc2ccn(CCNC(C)=O)c2n1
8.68
COc1ccc2[nH]cc(CCNC(C)=O)c2n1
8.96

Exercise: May I ask what pEC50 has been recorded for COc1ccc2c3c(n(CCNC(C)=O)c2n1)CCCC3 ?
Key: 8.89

Exercise: What do we get for COc1ccc2c(C(=O)C(F)(F)F)cn(CCNC(C)=O)c2n1 ?
Key: 8.00

Exercise: Try the compound CCCC(=O)NCCn1ccc2ccc(OC)nc21
Key: 9.15

Exercise: Continue with CCC(=O)NCCn1ccc2ccc(OC)nc21
Key: 8.85

Exercise: One more compound: COc1cnc2[nH]cc(CCNC(C)=O)c2c1
Key: 6.42

Where do the numbers come from? From ChEMBL document CHEMBL1759969.
